The reported numbers originate from patent US20200289425A1.

# Test system: colon cancer cells C2BBE1
# ASSAY_COMMENT: Cancer cell growth, Alamar Blue assay, C2BBE1
# Type: cell-based
# ASSAY_CONDITIONS: Homo sapiens; C2BBE1, 48 hr culture
MEASUREMENT_TYPE: IC50 (µM)

P: Nc1ccn([C@@H]2O[C@H](CO)[C@@H](O)C2(F)F)c(=O)n1
Q: CC(C)C[C@H](NC(=O)[C@H](CCc1ccccc1)NC(=O)CN1CCOCC1)C(=O)N[C@@H](Cc1ccccc1)C(=O)N[C@@H](CC(C)C)C(=O)[C@@]1(C)CO1
R: COc1cccc2c1C(=O)c1c(O)c3c(c(O)c1C2=O)C[C@@](O)(C(=O)CO)C[C@@H]3O[C@H]1C[C@H](N)[C@H](O)[C@H](C)O1
S: CC(=O)O[C@@]12CO[C@@H]1C[C@H](O)[C@@]1(C)C(=O)[C@H](O)C3=C(C)[C@@H](OC(=O)[C@H](O)[C@@H](NC(=O)OC(C)(C)C)c4ccccc4)C[C@@](O)([C@@H](OC(=O)c4ccccc4)[C@H]21)C3(C)C
-- ask Order these compounds (above) by their IC50, from the smallest value upward. Put the labels in the requested order and write them down.
-- reply Q, R, S, P
(Q: 1.6 µM, R: 13 µM, S: 100 µM, P: 170 µM)
